# assay_explanation: modulators of CIT2-GFP expression in yeast, confirmation, S. cerevisiae, GFP fusion, cherry picks, mother/daughter gates (AID 2274)
# condition_set: S. cerevisiae CIT2-GFP strain, flow cytometry, 3 h; measured here: daughter cell gate; at 10 µM; stronger effect = higher value
Kindly state GFP response, % of DMSO for each of the entries shown.
Report only the number, with the unit % understood.

**Query** Dear colleague, I am looking for the recorded GFP response, % of DMSO of the following compound: `CCC(=O)Nc1ccc(NC(=O)c2oc3ccccc3c2C)cc1`
**Result** 99.7

**Query** Fill in the blank: the reported GFP response, % of DMSO of `Oc1ccc2ccccc2c1N=Nc1nccs1` is ____.
**Result** 101

**Query** Given the entry `COc1ccccc1C1CCN(Cc2c(C)[nH]c3ccccc23)CC1` , report its measured GFP response, % of DMSO.
**Result** 97.4

**Query** Form field: reported GFP response, % of DMSO of `O=[N+]([O-])/C=C/c1cn(Cc2ccc(F)cc2)c2ccccc12`
**Result** 105

**Query** Requested read-out: GFP response, % of DMSO. Entry: `CN1C(=O)c2cccc3c(Cl)ccc(c23)C1=O`
**Result** 95.6

**Query** Fill blank: measured GFP response, % of DMSO of the compound `CCCCN(CC)S(=O)(=O)c1ccc(C(=O)Nc2nnc(COC)o2)cc1` is ____.
**Result** 100

**Query** // GFP response, % of DMSO lookup, key: `O=C1c2ccsc2SCCN1Cc1ccccc1`
**Result** 91.7

**Query** Using the record for `CCOc1ccccc1/C=C/C(=O)c1ccc(Cl)cc1` , report its GFP response, % of DMSO.
**Result** 103

**Query** # query: GFP response, % of DMSO of entry `Fc1ccc(/C=N/Nc2nc(-c3cccnc3)nc3ccccc23)cc1`
**Result** 96.5

**Query** For `O=C(Nc1nnc(-c2ccc(F)cc2)o1)c1cccc([N+](=O)[O-])c1` , what is its reported GFP response, % of DMSO?
**Result** 103

**Query** # get_value(readout='GFP response, % of DMSO', item= `O=C(CN1CCCC1)Nc1cc(C(F)(F)F)cc(C(F)(F)F)c1` )
**Result** 99.3

**Query** Which measured GFP response, % of DMSO value corresponds to `CCN1/C(=C/c2ccc3cc(C)ccc3[n+]2CC)Sc2ccc3sccc3c21` ?
**Result** 110

**Query** # get_value(readout='GFP response, % of DMSO', item= `O=C(Nc1ccccc1O)c1ccc(Cl)cc1` )
**Result** 99.7

**Query** Which GFP response, % of DMSO value belongs to CS(=O)(=O)N1N=C(c2ccco2)CC1c1ccc(Cl)cc1 (centres undefined) ?
**Result** 100

**Query** What value of measured GFP response, % of DMSO is listed for O=C1CC(Sc2nnc(-c3ccccc3O)o2)C(=O)N1c1ccccc1 (centres undefined) ?
**Result** 103

**Query** Which GFP response, % of DMSO is listed for CC(OC(=O)CSc1ccc([N+](=O)[O-])cc1)C(=O)NCc1ccccc1 (centres undefined) ?
**Result** 96.5

**Query** Endpoint output: GFP response, % of DMSO of `Cc1cc(NC(=O)c2cncc(Br)c2)ccc1NC(=O)c1cc2ccccc2o1` . Value?
**Result** 98.1

**Query** What GFP response, % of DMSO value was documented for this compound, `Cc1ccc(C(=O)c2c3ccccc3[n+]([O-])n2CCO)cc1` ?
**Result** 99.1

**Query** Query (compound): `COc1ccc(C(=O)ON=C2CCN(c3ccc([N+](=O)[O-])cc3)CC2)cc1` ; field requested: GFP response, % of DMSO
**Result** 104

**Query** Suppose we examine the compound `Cc1cc(NCCCN2CCOCC2)n2nc(C)c(-c3ccccc3)c2n1` ; what GFP response, % of DMSO value has been reported?
**Result** 101

**Query** Would you kindly share the measured GFP response, % of DMSO for `Cc1cccc2nc(-c3cccnc3)c(NCCC(C)C)n12` ?
**Result** 99.7

**Query** Returns the measured GFP response, % of DMSO for the input compound. Input: `Cc1ccc(SC(=O)c2c(C)noc2-c2cc(C)on2)cc1`
**Result** 124

**Query** Need GFP response, % of DMSO, item `CCc1ccc(NC(=O)c2nc(S(=O)(=O)Cc3ccccc3)ncc2Cl)cc1`
**Result** 90.9

**Query** # query: GFP response, % of DMSO of entry `CCCCOc1cccc(/C=C(\C#N)C(=O)NC2CC2)c1`
**Result** 99.1
